The reported measurements were obtained from paper PMC10673258.

# procedure.summary: Toxicity against wild type human HEK 293T cells
# Format: cell-based
# protocol.conditions: HEK293T cells (wild type); quercetin analogs alone; human kidney cell line HEK293T
recorded.metric: CC50 (µM)

[[record]]
compound = "O=C(O)[C@H]1O[C@@H](Oc2cc(O)c3c(=O)cc(-c4ccc(O)c(O)c4)oc3c2)[C@H](O)[C@@H](O)[C@@H]1O [11b]"
qualifier_symbol = "="
readout_number = 182

[[record]]
compound = "O=C1c2c(O)cc(O)cc2OC(c2ccc(O)c(O)c2)C1O (stereo not shown)"
qualifier_symbol = ">"
readout_number = 200

[[record]]
compound = "COc1ccc(-c2oc3cc(OC)c(OC)c(O)c3c(=O)c2OC)cc1O"
qualifier_symbol = ">"
readout_number = 200

[[record]]
compound = "O=c1cc(-c2ccc(O)c(O)c2)oc2cc(O)cc(O)c12 [11a]"
qualifier_symbol = "="
readout_number = 175

